molecular target: T1, hmm.hTfRC (REGN2431), human transferrin receptor extracellular domain with hexahistidine-myc-myc tag (human, UniProt P02786 89-760); experiment: SPR (Biacore), mAb captured on anti-human Fc, 100 nM hTFR-mmh, 25 C
T1 construct: Monomeric recombinant protein, 79210 g/mol; also called hTFR-mmh; His-myc-myc-hTFRC ecto
T1 sequence (P02786 other isoform, or with tags, fused parts or gaps): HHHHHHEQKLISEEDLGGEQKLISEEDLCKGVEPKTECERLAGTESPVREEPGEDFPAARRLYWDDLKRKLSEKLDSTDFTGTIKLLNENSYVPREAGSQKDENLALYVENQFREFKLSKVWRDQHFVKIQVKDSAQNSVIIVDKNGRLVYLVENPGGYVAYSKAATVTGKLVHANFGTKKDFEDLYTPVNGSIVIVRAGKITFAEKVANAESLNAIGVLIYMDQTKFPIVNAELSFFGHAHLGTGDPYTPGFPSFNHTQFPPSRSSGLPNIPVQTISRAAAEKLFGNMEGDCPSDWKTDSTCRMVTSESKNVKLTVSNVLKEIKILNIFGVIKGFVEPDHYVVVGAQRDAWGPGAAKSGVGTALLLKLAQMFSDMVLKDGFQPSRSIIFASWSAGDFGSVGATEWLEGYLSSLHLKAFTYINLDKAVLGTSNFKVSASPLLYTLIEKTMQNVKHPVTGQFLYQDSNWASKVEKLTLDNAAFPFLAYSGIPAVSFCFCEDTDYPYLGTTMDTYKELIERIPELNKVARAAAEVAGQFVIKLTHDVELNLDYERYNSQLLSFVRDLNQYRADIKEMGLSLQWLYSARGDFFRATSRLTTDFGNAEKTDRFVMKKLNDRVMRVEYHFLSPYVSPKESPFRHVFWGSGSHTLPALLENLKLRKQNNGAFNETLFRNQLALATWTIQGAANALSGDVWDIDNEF
Each item that follows carries a reported kon.
Just the number in M⁻¹ s⁻¹, nothing appended.

// known answers, use as guide
- 12801B (antibody, human IgG1, kappa, V domains shown, Tested as bivalent human IgG1 from CHO primary supernatant) VH: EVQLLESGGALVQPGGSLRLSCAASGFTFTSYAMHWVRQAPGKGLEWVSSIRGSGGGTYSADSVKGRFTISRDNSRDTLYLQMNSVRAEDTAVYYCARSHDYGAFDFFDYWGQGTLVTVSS VL: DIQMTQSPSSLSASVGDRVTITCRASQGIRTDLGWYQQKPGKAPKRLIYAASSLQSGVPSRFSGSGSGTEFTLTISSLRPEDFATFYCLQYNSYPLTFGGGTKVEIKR: 81900
- 69329 (antibody, human IgG1, kappa, V domains shown, Tested as bivalent human IgG1 from CHO primary supernatant) VH: EVQLVESGGGLVQPGGSLRLSCAASGFTFSNYWMTWVRQAPGKGLEWVANIKEDGSEKDYVDSVKGRFTISRDNAKNSLYLQMNSLRGEDTAVYYCARDGEQLVDYYYYYVMDVWGQGTTVTVSS VL: DIQMTQSPSSVSASVGDRVTITCRASQGISSWLAWYQQKPGKAPKLLIYAASSLQSGVPSRFSGSGSGTDFTLTISSLQPEDFATYYCQKANSFPYTFGQGTKLEIKR: 192000

Turning now to a further record.
Ask | Find the recorded kon belonging to 12795B (antibody, human IgG1, kappa, V domains shown, Tested as bivalent human IgG1 from CHO primary supernatant) VH: EVQLVESGGGLVQPGGSLRLSCATSGFTFTSYDMKWVRQAPGLGLEWVSAISGSGGNTYYADSVKGRFTISRDNSRNTLYLQMNSLRAEDTAVYYCTRSHDFGAFDYFDYWGQGTLVTVSS VL: DIQMTQSPSSLSASVGDRVTITCRASQGIRDHFGWYQQKPGKAPKRLIYAASSLHSGVPSRFSGSGSGTEFTLTISSLQPEDFATYYCLQYDTYPLTFGGGTKVEIKR and report it.
Reply | 122000
